Test: collision cross section of modified peptide (TIMS, N2, iRT-aligned); higher = larger / more extended gas-phase ion
Conditions: charge state: 3; modification: Dimethyl (K)
# collision cross section per record follows

[
  {
    "Macromolecule sequence": "DLSTVEALQNLKNLK [_DLSTVEALQNLK(Dimethyl (K))NLK_]",
    "Units symbol": "Å²",
    "collision cross section": 513.29
  },
  {
    "Macromolecule sequence": "VQGGALEDSQLVAGVAFKK [_VQGGALEDSQLVAGVAFK(Dimethyl (K))K_]",
    "Units symbol": "Å²",
    "collision cross section": 554.94
  },
  {
    "Macromolecule sequence": "PASGAGAGAGAGKR [_PASGAGAGAGAGK(Dimethyl (K))R_]",
    "Units symbol": "Å²",
    "collision cross section": 457.59
  },
  {
    "Macromolecule sequence": "ITESVAETAQTIKK [_ITESVAETAQTIK(Dimethyl (K))K_]",
    "Units symbol": "Å²",
    "collision cross section": 499.12
  },
  {
    "Macromolecule sequence": "LDEKENLSAK [_LDEK(Dimethyl (K))ENLSAK_]",
    "Units symbol": "Å²",
    "collision cross section": 441.27
  },
  {
    "Macromolecule sequence": "LAEEENKAK [_LAEEENK(Dimethyl (K))AK_]",
    "Units symbol": "Å²",
    "collision cross section": 411.22
  },
  {
    "Macromolecule sequence": "DYSSGFGGKYGVQADR [_DYSSGFGGK(Dimethyl (K))YGVQADR_]",
    "Units symbol": "Å²",
    "collision cross section": 488.23
  },
  {
    "Macromolecule sequence": "LQDVSGQLSSSKK [_LQDVSGQLSSSK(Dimethyl (K))K_]",
    "Units symbol": "Å²",
    "collision cross section": 466.01
  },
  {
    "Macromolecule sequence": "SPSDSGYSYETIGKTTK [_SPSDSGYSYETIGK(Dimethyl (K))TTK_]",
    "Units symbol": "Å²",
    "collision cross section": 515.36
  },
  {
    "Macromolecule sequence": "VYIASSSGSTAIKK [_VYIASSSGSTAIK(Dimethyl (K))K_]",
    "Units symbol": "Å²",
    "collision cross section": 497.25
  },
  {
    "Macromolecule sequence": "SGNLTEDDKHNNAK [_SGNLTEDDK(Dimethyl (K))HNNAK_]",
    "Units symbol": "Å²",
    "collision cross section": 479.84
  },
  {
    "Macromolecule sequence": "ISALQGKLSK [_ISALQGK(Dimethyl (K))LSK_]",
    "Units symbol": "Å²",
    "collision cross section": 425.26
  },
  {
    "Macromolecule sequence": "TFGKAAGPSLSHTSGGTQSK [_TFGK(Dimethyl (K))AAGPSLSHTSGGTQSK_]",
    "Units symbol": "Å²",
    "collision cross section": 547.87
  },
  {
    "Macromolecule sequence": "VDIDVPDVNIEGPDAKLK [_VDIDVPDVNIEGPDAK(Dimethyl (K))LK_]",
    "Units symbol": "Å²",
    "collision cross section": 550.04
  },
  {
    "Macromolecule sequence": "TPNLYIYSKK [_TPNLYIYSK(Dimethyl (K))K_]",
    "Units symbol": "Å²",
    "collision cross section": 432.06
  },
  {
    "Macromolecule sequence": "ALASIDSKLNQAK [_ALASIDSK(Dimethyl (K))LNQAK_]",
    "Units symbol": "Å²",
    "collision cross section": 457.79
  },
  {
    "Macromolecule sequence": "SLFFGGKGAPLQR [_SLFFGGK(Dimethyl (K))GAPLQR_]",
    "Units symbol": "Å²",
    "collision cross section": 451.66
  },
  {
    "Macromolecule sequence": "DHLSDKESK [_DHLSDK(Dimethyl (K))ESK_]",
    "Units symbol": "Å²",
    "collision cross section": 408.73
  },
  {
    "Macromolecule sequence": "SLKLNTAEDAK [_SLK(Dimethyl (K))LNTAEDAK_]",
    "Units symbol": "Å²",
    "collision cross section": 468.91
  },
  {
    "Macromolecule sequence": "TTGFYSGFSEVAEKR [_TTGFYSGFSEVAEK(Dimethyl (K))R_]",
    "Units symbol": "Å²",
    "collision cross section": 504.73
  },
  {
    "Macromolecule sequence": "DESFLGKLGGTLAR [_DESFLGK(Dimethyl (K))LGGTLAR_]",
    "Units symbol": "Å²",
    "collision cross section": 466.85
  },
  {
    "Macromolecule sequence": "AGQKLIDVNHYAK [_AGQK(Dimethyl (K))LIDVNHYAK_]",
    "Units symbol": "Å²",
    "collision cross section": 472.93
  },
  {
    "Macromolecule sequence": "FGTINIVHPKLGSYTK [_FGTINIVHPK(Dimethyl (K))LGSYTK_]",
    "Units symbol": "Å²",
    "collision cross section": 520.37
  },
  {
    "Macromolecule sequence": "LLEQKTQESQK [_LLEQK(Dimethyl (K))TQESQK_]",
    "Units symbol": "Å²",
    "collision cross section": 453.46
  },
  {
    "Macromolecule sequence": "ANLEKAQAELVGTADEATR [_ANLEK(Dimethyl (K))AQAELVGTADEATR_]",
    "Units symbol": "Å²",
    "collision cross section": 525.41
  },
  {
    "Macromolecule sequence": "VPTTEKPTVTVNFR [_VPTTEK(Dimethyl (K))PTVTVNFR_]",
    "Units symbol": "Å²",
    "collision cross section": 496.28
  },
  {
    "Macromolecule sequence": "VFSIISSEKELK [_VFSIISSEK(Dimethyl (K))ELK_]",
    "Units symbol": "Å²",
    "collision cross section": 490.22
  },
  {
    "Macromolecule sequence": "VFIGNLNTLVVKK [_VFIGNLNTLVVK(Dimethyl (K))K_]",
    "Units symbol": "Å²",
    "collision cross section": 478.47
  },
  {
    "Macromolecule sequence": "SDDESSQKDIK [_SDDESSQK(Dimethyl (K))DIK_]",
    "Units symbol": "Å²",
    "collision cross section": 434.93
  }
]

----------
Test: collision cross section of modified peptide (TIMS, N2, iRT-aligned); higher = larger / more extended gas-phase ion
Details: charge state: 2; modification: Dimethyl (K)

[
  {
    "Macromolecule sequence": "VDVEVPDVSLEGPEGKLK [_VDVEVPDVSLEGPEGK(Dimethyl (K))LK_]",
    "collision cross section [Å²]": 459.72
  },
  {
    "Macromolecule sequence": "ISSNFSSIIAEKLR [_ISSNFSSIIAEK(Dimethyl (K))LR_]",
    "collision cross section [Å²]": 442.58
  },
  {
    "Macromolecule sequence": "GFALVGVGSEASSKK [_GFALVGVGSEASSK(Dimethyl (K))K_]",
    "collision cross section [Å²]": 439.69
  },
  {
    "Macromolecule sequence": "TLQKQSVVYGGK [_TLQK(Dimethyl (K))QSVVYGGK_]",
    "collision cross section [Å²]": 397.97
  },
  {
    "Macromolecule sequence": "ISALQGKLSK [_ISALQGK(Dimethyl (K))LSK_]",
    "collision cross section [Å²]": 355.29
  },
  {
    "Macromolecule sequence": "LLIVSTTPYSEKDTK [_LLIVSTTPYSEK(Dimethyl (K))DTK_]",
    "collision cross section [Å²]": 459.41
  },
  {
    "Macromolecule sequence": "DYSSGFGGKYGVQADR [_DYSSGFGGK(Dimethyl (K))YGVQADR_]",
    "collision cross section [Å²]": 435.9
  },
  {
    "Macromolecule sequence": "AAINQKLIETGER [_AAINQK(Dimethyl (K))LIETGER_]",
    "collision cross section [Å²]": 413.1
  },
  {
    "Macromolecule sequence": "SNEEGSEEKGPEVR [_SNEEGSEEK(Dimethyl (K))GPEVR_]",
    "collision cross section [Å²]": 393.74
  },
  {
    "Macromolecule sequence": "VNIGQGSHPQKVK [_VNIGQGSHPQK(Dimethyl (K))VK_]",
    "collision cross section [Å²]": 407.47
  },
  {
    "Macromolecule sequence": "SEASSEFAKK [_SEASSEFAK(Dimethyl (K))K_]",
    "collision cross section [Å²]": 358.79
  },
  {
    "Macromolecule sequence": "SLFFGGKGAPLQR [_SLFFGGK(Dimethyl (K))GAPLQR_]",
    "collision cross section [Å²]": 408.95
  },
  {
    "Macromolecule sequence": "DAEAAEATAEGALKAEK [_DAEAAEATAEGALK(Dimethyl (K))AEK_]",
    "collision cross section [Å²]": 461.24
  },
  {
    "Macromolecule sequence": "LQAAYAGDKADDIQK [_LQAAYAGDK(Dimethyl (K))ADDIQK_]",
    "collision cross section [Å²]": 436.04
  },
  {
    "Macromolecule sequence": "SLKLNTAEDAK [_SLK(Dimethyl (K))LNTAEDAK_]",
    "collision cross section [Å²]": 369.7
  },
  {
    "Macromolecule sequence": "KYEEIDNAPEER [_K(Dimethyl (K))YEEIDNAPEER_]",
    "collision cross section [Å²]": 402.53
  },
  {
    "Macromolecule sequence": "SSGPGGQNVNKVNSK [_SSGPGGQNVNK(Dimethyl (K))VNSK_]",
    "collision cross section [Å²]": 397.16
  },
  {
    "Macromolecule sequence": "GGPGSTLSFVGKR [_GGPGSTLSFVGK(Dimethyl (K))R_]",
    "collision cross section [Å²]": 393.41
  },
  {
    "Macromolecule sequence": "TPNLYIYSKK [_TPNLYIYSK(Dimethyl (K))K_]",
    "collision cross section [Å²]": 376.02
  },
  {
    "Macromolecule sequence": "LQDVSGQLSSSKK [_LQDVSGQLSSSK(Dimethyl (K))K_]",
    "collision cross section [Å²]": 407.51
  },
  {
    "Macromolecule sequence": "ITGKNQVTATK [_ITGK(Dimethyl (K))NQVTATK_]",
    "collision cross section [Å²]": 369.07
  },
  {
    "Macromolecule sequence": "LTSLNVKYNNDK [_LTSLNVK(Dimethyl (K))YNNDK_]",
    "collision cross section [Å²]": 409.23
  }
]
